The measured values listed here are drawn from patent EP0569777A2.

Test system: C286.8A
assayComment: Competitive EIA, peptide epitope mapping of monoclonal antibody C286.8A
Assay type: binding, Murine
cond: Figure 4; plates coated with 50 ng of synthetic APP 695 (597-638); C286.8A (80 ng of IgG) preincubated 60 min at room temperature with competitor peptide
measureName: ability to block binding of C286.8A to APP 597-638

APP 621-631: Synthetic peptide, amino acids 621-631 of human APP695; beta-amyloid peptide sequence 25-35 (WHSFGADSVPA; isoform APP695; UniProt P05067 621-631, looked up, fragment) = did not inhibit binding
APP 608-624: Synthetic peptide, amino acids 608-624 of human APP695; beta-amyloid peptide sequence 12-28 (PVNGEFSLDDLQPWHSF; isoform APP695; UniProt P05067 608-624, looked up, fragment) = did not inhibit binding
APP 645-695: Synthetic peptide, amino acids 645-695 of human APP695, C-terminal domain, devoid of any beta-amyloid sequence (AADRGLTTRPGSGLTNIKTEEISEVKMDAEFRHDSGYEVHHQKLVFFAEDV; isoform APP695; UniProt P05067 645-695, looked up, fragment) = did not inhibit binding
